System: Kasumi-1 cells
assay: Kasumi-1 cell inhibitory activity (CellTiter-Glo, 5 days)
Format: cell-based
assay-setup: Homo sapiens, 120 h, 5 days incubation, CellTiter-Glo luminescence
pIC50: −log10 of the molar value.
Would you kindly list pIC50 for each of these molecules?

Fill in: pIC50 on Kasumi-1 cells, entry `O=C(NCc1cn2cc(CNCC3CCC3)ccc2n1)c1cc(=O)n2cc3c(cc2n1)OCO3` 6.00 to 7.00

Fill in: pIC50 on Kasumi-1 cells, entry `[2H]C([2H])(NCc1cc2ccc(CNC(=O)c3cc(=O)n4cc5c(cc4n3)OCO5)cc2[nH]1)C12CC(F)(C1)C2` > 7.00

Fill in: pIC50 on Kasumi-1 cells, entry `O=C(NCc1cc2[nH]c(CNCC3CCC3)cc2cc1F)c1cc(=O)n2cc3c(cc2n1)OCCO3` > 7.00

Fill in: pIC50 on Kasumi-1 cells, entry `[2H]C([2H])(NCc1cc2cc(F)c(CNC(=O)c3cc(=O)n4cc5c(cc4n3)OCO5)cc2[nH]1)C12CC(CO1)C2` 6.00 to 7.00

Fill in: pIC50 on Kasumi-1 cells, entry O=C(NCc1ccc2cc(CNC3CCC(F)(F)C3)[nH]c2c1)c1cc(=O)n2cc3c(cc2n1)OCO3 (stereo not shown) 6.00 to 7.00

Fill in: pIC50 on Kasumi-1 cells, entry `O=C(NCc1ccc2cc(CNCC34CC(CO3)C4)[nH]c2c1)c1cc(=O)n2cc3c(cc2n1)OCCO3` 6.00 to 7.00

Fill in: pIC50 on Kasumi-1 cells, entry `[2H]C([2H])(NCc1cc2cc(F)c(CNC(=O)c3cc(=O)n4cc5c(cc4n3)OCO5)cc2[nH]1)C1CCC1` > 7.00

Fill in: pIC50 on Kasumi-1 cells, entry `[2H]C([2H])(NCc1cc2cc(F)c(CNC(=O)c3cc(=O)n4cc5c(cc4n3)OCCO5)cc2[nH]1)C1CCC1` > 7.00

Fill in: pIC50 on Kasumi-1 cells, entry `O=C(NCc1ccc2cc(CNCC3CCC3)[nH]c2c1)c1cn2ncc3c2c(n1)NCCO3` 6.00 to 7.00

Fill in: pIC50 on Kasumi-1 cells, entry `O=C(NCc1cc2[nH]c(CNCC3CCC3)cc2cc1F)c1cc(=O)n2cc3c(cc2n1)OCO3` 6.00 to 7.00

====

assay: Rat pharmacokinetic test, intravenous injection
Format: in vivo
assay-setup: male, SD, plasma, rats, 2 mg/kg, average of 3 rats
Would you kindly list clearance for each of these compounds?
State just the number; it will be interpreted in mL/min/kg.

Give the value of clearance reported for the following: O=C(NCc1ccc2cc(CNCC3CCC3)[nH]c2c1)c1cc(=O)n2cc3c(cc2n1)OCO3 [Example 25] 22.7

Give the value of clearance reported for the following: [2H]C([2H])(NCc1cc2cc(F)c(CNC(=O)c3cc(=O)n4cc5c(cc4n3)OCO5)cc2[nH]1)C1CCC1 [Example 88] 19.1

Give the value of clearance reported for the following: O=C(NCc1ccc2cc(CNCC3CC(F)(F)C3)[nH]c2c1)c1cc(=O)n2cc3c(cc2n1)OCCO3 [Example 24] 15.3

Give the value of clearance reported for the following: O=C(NCc1cc2[nH]c(CNCC3CCC3)cc2cc1F)c1cc(=O)n2cc3c(cc2n1)OCO3 [Example 73] 23

Give the value of clearance reported for the following: [2H]C([2H])(NCc1cc2cc(F)c(CNC(=O)c3cc(=O)n4cc5c(cc4n3)OCCO5)cc2[nH]1)C12CC(F)(C1)C2 [Example 94] 28.5

Give the value of clearance reported for the following: [2H]C([2H])(NCc1cc2cc(F)c(CNC(=O)c3cc(=O)n4cc5c(cc4n3)OCO5)cc2[nH]1)C12CC(F)(C1)C2 [Example 89] 28.1
